Each record here notes measured % Control Cucumber Powdery Mildew.
Tested on: Erysiphe cichoracearum
test summary: Cucumber powdery mildew control on sprayed cucumber seedlings (Example 80)
Format: in vivo
condition details: 100 ppm spray, day before inoculation
The answer is to be given in %; state only the numeric part.

{"smiles notation": "C[Si](C)(Cn1cncn1)c1ccc(-c2ccccc2)cc1.O=S(=O)([O-])[O-].[Mn+2]", "% Control Cucumber Powdery Mildew [%]": 90}
{"smiles notation": "C[Si](Cn1cncn1)(c1ccc(F)cc1)c1ccc(F)cc1.[Cl][Cu]", "% Control Cucumber Powdery Mildew [%]": 100}
{"smiles notation": "C[Si](C)(Cn1cncn1)c1ccc(-c2ccccc2)cc1.[Cl][Cu][Cl]", "% Control Cucumber Powdery Mildew [%]": 100}

Query: Name the reported % Control Cucumber Powdery Mildew value associated with the compound C[Si](C)(Cn1cncn1)c1ccc(-c2ccccc2)cc1.[Cl][Cu]
Response: 100

====

System: Venturia inaequalis
test summary: Apple scab control on sprayed apple seedlings (Example 82)
Format: in vivo
condition details: Venturia inaequalis, 100 ppm spray, day before inoculation
test readout: pest or weed control at 100 ppm
I'd appreciate it if you included the unit after the number.

The following compounds have reported results that may help.
{"compound": "CCCC[Si](C)(Cn1cncn1)c1ccccc1 (centres unmarked)", "target entity": "Venturia inaequalis", "result": "80%"}
{"compound": "Fc1ccc([Si](Cn2cncn2)(O[Si](Cn2cncn2)(c2ccc(F)cc2)c2ccc(F)cc2)c2ccc(F)cc2)cc1", "target entity": "Venturia inaequalis", "result": "100%"}
{"compound": "O[Si](Cn1cncn1)(c1ccc(F)cc1)c1ccc(F)cc1", "target entity": "Venturia inaequalis", "result": "100%"}
{"compound": "C[Si](Cn1cncn1)(c1ccc(Cl)cc1)c1ccc(Cl)cc1", "target entity": "Venturia inaequalis", "result": "100%"}

Here is the next item to consider.
Query: What does the record list as pest or weed control at 100 ppm for C[Si](Cn1cncn1)(c1ccccc1)c1ccc(Cl)cc1Cl (centres unmarked) ?
Response: 100%

====

Test system: apple seedlings
test summary: Phytotoxicity on apple seedlings (Example 82)
Format: in vivo
Parameters: key: G = growth reduction; H = hormonal effects
condition details: 100 ppm spray
Procedure: These suspensions were sprayed to the point of run-off on apple seedlings. The following day, the plants were inoculated with a spore suspension of the fungus Venturia inaequalis, causal agent of apple scab, and incubated in a saturated humidity chamber at 20° for 24 hours and then in a growth room for an additional 10-12 days. […] Phytotoxicity expressed as growth reduction was observed on some of the plants in association with disease control.
test readout: Phytotoxicity on apple

# example entries with known answers
{"compound": "CCCC[Si](C)(Cn1cncn1)c1ccc(Cl)cc1 (centres unmarked)", "result": "G"}
{"compound": "Cc1ccc([Si](C)(C)Cn2cncn2)cc1", "result": "G"}
{"compound": "C[Si](Cn1cncn1)(c1ccccc1)c1ccc(Cl)cc1Cl (centres unmarked)", "result": "G"}
{"compound": "C[Si](C)(Cn1cncn1)c1ccc(Br)cc1", "result": "G"}

Consider the additional compound presented here.
Query: I'd like to know its Phytotoxicity on apple. The compound in question is CCCC[Si](C)(Cn1cncn1)c1ccc(Cl)cc1Cl (centres unmarked)
Response: G

====

System: Venturia inaequalis
test summary: Apple scab control on sprayed apple seedlings (Example 82)
Assay type: in vivo
condition details: Venturia inaequalis, 100 ppm spray, day before inoculation
# maps each entry to its pest or weed control at 100 ppm
Please reply with the bare figure in % and do not write the unit itself.

{"compound": "C[Si](Cn1cncn1)(c1ccc(F)cc1)c1ccc(F)cc1", "test readout": "pest or weed control at 100 ppm", "unit string": "%", "readout number": 100}
{"compound": "C[Si](O)(Cn1cncn1)c1ccc(-c2ccccc2)cc1 (stereo not drawn)", "test readout": "pest or weed control at 100 ppm", "unit string": "%", "readout number": 100}
{"compound": "C[Si](C)(Cn1cncn1)c1ccc(OC(F)(F)F)cc1", "test readout": "pest or weed control at 100 ppm", "unit string": "%", "readout number": 90}

Query: What measured pest or weed control at 100 ppm goes with COc1ccc([Si](C)(C)Cn2cncn2)cc1 ?
Response: 100

Query: Try this compound next: C[Si](Cn1cncn1)(c1ccccc1)c1ccc(F)cc1 (stereo not drawn)
Response: 100

Query: Same question, CCCC[Si](C)(Cn1cncn1)c1ccc(Cl)cc1 (stereo not drawn) this time
Response: 100

====

Recorded inhibition of growth at 100 µg/mL by entry
Tested on: Monilinia fructicola
test summary: Stone fruit brown rot control on dipped canned peach halves (Example 86)
condition details: 120 h, 100 ppm dip, percent growth inhibition of colonies after five days
Report the figure in % without appending any unit label.

{"compound": "COc1ccc([Si](C)(C)Cn2cncn2)cc1", "test readout": "inhibition of growth at 100 µg/mL", "readout number": 97}

Query: Data request, read-out inhibition of growth at 100 µg/mL, for CCCC[Si](C)(Cn1cncn1)c1ccc(F)cc1 (stereo not drawn)
Response: 100

Query: One more compound: CCCC[Si](C)(Cn1cncn1)c1ccc(Cl)cc1Cl (stereo not drawn)
Response: 98

Query: Then this compound: CCCC[Si](C)(C)Cn1cncn1
Response: 95

Query: What about this compound? C[Si](Cn1cncn1)(c1ccc(Cl)cc1)c1ccc(Cl)cc1
Response: 95

Query: Please answer likewise for C[Si](C)(Cn1cncn1)c1ccc(Cl)cc1Cl
Response: 100

====

Test system: cucumber seedlings
test summary: Phytotoxicity on cucumber seedlings (Example 80)
Format: in vivo
Parameters: key: G = growth reduction; H = hormonal effects
condition details: 100 ppm spray
test readout: Phytotoxicity on cucumber

Example results:
{"molecule": "C[Si](Cn1cncn1)(c1ccc(Cl)cc1Cl)c1ccc(Cl)cc1Cl", "target entity": "cucumber seedlings", "test readout": "Phytotoxicity on cucumber", "result": "G"}
{"molecule": "C[Si](C)(Cn1cncn1)c1ccccc1Cl", "target entity": "cucumber seedlings", "test readout": "Phytotoxicity on cucumber", "result": "G"}
{"molecule": "C[Si](C)(Cn1cncn1)c1ccc(C(F)(F)F)cc1", "target entity": "cucumber seedlings", "test readout": "Phytotoxicity on cucumber", "result": "G"}
{"molecule": "C[Si](C)(Cn1cncn1)c1ccc(Cl)cc1Cl", "target entity": "cucumber seedlings", "test readout": "Phytotoxicity on cucumber", "result": "H"}
{"molecule": "C[Si](C)(Cn1cncn1)c1ccc(OC(F)(F)F)cc1", "target entity": "cucumber seedlings", "test readout": "Phytotoxicity on cucumber", "result": "G"}
{"molecule": "O[Si](Cn1cncn1)(c1ccc(F)cc1)c1ccc(F)cc1", "target entity": "cucumber seedlings", "test readout": "Phytotoxicity on cucumber", "result": "H"}
{"molecule": "C[Si](C)(Cn1cncn1)c1ccc(Br)cc1", "target entity": "cucumber seedlings", "test readout": "Phytotoxicity on cucumber", "result": "G"}
{"molecule": "C[Si](Cn1cncn1)(c1ccccc1)c1ccccc1", "target entity": "cucumber seedlings", "test readout": "Phytotoxicity on cucumber", "result": "G"}

Query: Query for cucumber seedlings: what Phytotoxicity on cucumber does the record show for COc1cccc(OC)c1[Si](C)(C)Cn1cncn1 ?
Response: G

====

System: Venturia inaequalis
test summary: Apple scab control on sprayed apple seedlings (Example 82)
Type: in vivo
condition details: Venturia inaequalis, 100 ppm spray, day before inoculation
test readout: pest or weed control at 100 ppm (%)
The figure you give is taken to be in %; do not add the unit.

{"compound": "C[Si](Cn1cncn1)(c1ccc(-c2ccccc2)cc1)c1ccc(-c2ccccc2)cc1", "readout number": 0}
{"compound": "C[Si](C)(Cn1cncn1)c1ccccc1", "readout number": 0}
{"compound": "Cc1ccc([Si](C)(Cn2cncn2)c2ccc(C)cc2)cc1", "readout number": 0}
{"compound": "C[Si](C)(Cn1cncn1)c1cccc(Cl)c1", "readout number": 60}
{"compound": "CCCC[Si](C)(C)Cn1cncn1", "readout number": 0}

Query: Value lookup for pest or weed control at 100 ppm; key = CC(C)(C)O[Si](C)(Cn1cncn1)c1ccccc1 (centres unmarked)
Response: 0

Query: Could you do the same for C[Si](C)(Cn1cncn1)c1cccc(-c2ccccc2)c1 , please?
Response: 50

Query: Same thing, different compound: C[Si](Cn1cncn1)(c1ccc(Cl)cc1Cl)c1ccc(Cl)cc1Cl
Response: 100

Query: What would you report for C[Si](C)(Cn1cncn1)c1ccccc1-c1ccccc1 ?
Response: 60

Query: Then what about the compound C[Si](C)(Cn1cncn1)c1ccc(Oc2ccccc2)cc1 ?
Response: 100

====

Tested on: Venturia inaequalis
test summary: Apple scab control on sprayed apple seedlings (Example 82)
Type: in vivo
condition details: Venturia inaequalis, 100 ppm spray, day before inoculation
Experimental: These suspensions were sprayed to the point of run-off on apple seedlings. The following day, the plants were inoculated with a spore suspension of the fungus Venturia inaequalis, causal agent of apple scab, and incubated in a saturated humidity chamber at 20° for 24 hours and then in a growth room for an additional 10-12 days. […] Phytotoxicity expressed as growth reduction was observed on some of the plants in association with disease control.
test readout: pest or weed control at 100 ppm (%)
Only the number, expressed in %, is required.

Recorded results for 5 molecules are shown here.
{"molecule": "CCCC[Si](C)(CCCC)Cn1cncn1", "target entity": "Venturia inaequalis", "unit string": "%", "readout number": 0}
{"molecule": "C[Si](C)(Cn1cncn1)c1cccc2ccccc12", "target entity": "Venturia inaequalis", "unit string": "%", "readout number": 50}
{"molecule": "C[Si](C)(Cn1cncn1)C1CCCCC1", "target entity": "Venturia inaequalis", "unit string": "%", "readout number": 0}
{"molecule": "C[Si](C)(Cn1cncn1)c1cccc(C(F)(F)F)c1", "target entity": "Venturia inaequalis", "unit string": "%", "readout number": 0}
{"molecule": "CC[Si](C)(C)Cn1cncn1", "target entity": "Venturia inaequalis", "unit string": "%", "readout number": 0}

Query: Would you mind telling me what pest or weed control at 100 ppm value was observed for CCCC[Si](C)(Cn1cncn1)c1ccc(Cl)cc1Cl (stereo not shown) ?
Response: 100

Query: Could you do the same for C[Si](C)(Cn1cncn1)c1ccc(Cl)cc1Cl , please?
Response: 100

Query: Same thing, different molecule: COc1cccc([Si](C)(C)Cn2cncn2)c1OC
Response: 0

Query: What do you have for C[Si](C)(Cn1cncn1)c1ccc(Oc2ccc(Cl)cc2)cc1 ?
Response: 100

Query: Proceed to C[Si](C)(Cn1cncn1)c1cc(Cl)cc(Cl)c1
Response: 0
